target desc: PD-1/PD-L1 (Homo sapiens, UniProt Q9NZQ7)
Construct: 60535 (PD-1/NFAT-Reporter-Jurkat); Jurkat cells expressing PD-1
Sequence (Q9NZQ7 19-290): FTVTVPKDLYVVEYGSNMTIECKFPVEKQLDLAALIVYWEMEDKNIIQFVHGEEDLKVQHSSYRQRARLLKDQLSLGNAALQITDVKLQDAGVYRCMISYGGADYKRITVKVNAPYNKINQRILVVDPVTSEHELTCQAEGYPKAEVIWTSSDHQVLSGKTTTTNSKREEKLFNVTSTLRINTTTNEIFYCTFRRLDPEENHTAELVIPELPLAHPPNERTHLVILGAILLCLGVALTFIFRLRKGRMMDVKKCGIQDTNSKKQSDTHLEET
assay comment: Detection of biological activity of PD-1/PD-L1 signaling inhibition at the cellular level (NFAT luciferase reporter, PD-1/NFAT-Reporter-Jurkat cells co-cultured with TCR activator/PD-L1-CHO cells)
cond: PD-1/NFAT-Reporter-Jurkat + TCR activator/PD-L1-CHO co-culture, 6 hours; Atezolizumab as positive control
reported endpoint: pEC50
# pEC50: negative log10 of molar concentration; output just the value

COc1cc(Cn2ncc3c(-c4cccc(-c5cc(F)c(CNC[C@@H]6CCC(=O)N6)c(OC)c5)c4Cl)cccc32)c(Cl)cc1CN(C)C[C@H]1CC[C@H](CC(=O)O)CC1 [Compound 130]
6.87

// lookup pEC50 for N#Cc1cncc(COc2cc(Cn3ncc4c(-c5cccc(-c6ccc(CNC[C@@H]7CCC(=O)N7)nc6)c5Cl)cccc43)c(Cl)cc2CN[C@@H](CO)C(=O)O)c1 [Compound 10]
7.09

// lookup pEC50 for N#Cc1cncc(COc2cc(Cn3ncc4c(-c5cccc(-c6ccc(CCCN7CC[C@@H](O)C7)cc6)c5Cl)cccc43)c(Cl)cc2CN[C@@H](CO)C(=O)O)c1 [Compound 19]
6.29

// lookup pEC50 for COc1cc(Cn2ncc3c(-c4cccc(-c5ccc(CNC[C@@H]6CCC(=O)N6)cc5)c4Cl)cccc32)c(Cl)cc1CN1CCC[C@@H](C(=O)O)C1 [Compound 35]
6.07

// lookup pEC50 for COc1cc(-c2cccc(-c3cccc4c3cnn4Cc3cc(OC)c(CN4CC[C@@H](C(=O)O)C4)cc3Cl)c2Cl)ccc1CN1CC[C@@H](O)C1 [Compound 87]
6.16
